- measured-target: T1, genetically modified and chemically inactivated C. difficile toxoid A (Clostridium difficile, UniProt P16154 2-2710)
- T1 construct: also called TxdA; the toxoid
- procedure-text: ITC
quantity: DH (kcal/mol)
Dear colleague, please return just the value in kcal/mol, with no unit written.

// DH lookup, binder = hCDIFA-45 (antibody, V domains shown) VH: QVQLVQSGPEVRKPGTSVKFSCKASGFTFTSAAMQWVRQARGQRLEWIGWIVVDSGNTNYAQKFQERVTITRDMSTSTVYMELSSLRSEDTAMYYCAASRGIVGTRGLFDSWGQGTLVTVSS VL: EIVLTQSPSSLSSSVGDRVTITCRASQSIRNYLNWYQQKPGKAPKLLIYGASSLQSGVPPRFSGSGFGTDFTLTISNLQPEDFASYSCQQTYSTPLTFGGGTKLEIKR , result: -17.6

// DH lookup, binder = hCDIFA-35 (antibody, V domains shown) VH: EVQLVQSGGGVVQPGRSLKLSCAASGFSFSSHGMHWVRQAPGKGLEWVALISYDGSYKYYEDSVKGRFTISRDNSKNTLYLQMNSLRAEDTAVYYCAKDWERYCSGMSCYLRNSLDYWGQGTLVTVSS VL: QSALTQPPSVSVAPGKTAGITCGGPNIGSKSVHWYQRKPGQAPVLVVYDDRYRPSGIPERFSGSNSGNTATLSISRVEAGDEADYYCQVWDSRSDHVVFGGGTKLTVLG , result: -16.6

// DH lookup, binder = hCDIFA-33 (antibody, V domains shown) VH: QVQLVQSGGGLVQPGGSLRLSCVASGFTFSSYAMTWVRQAPGMGLEWVSTISLSGSTIYYADSVKGRFTISRDNPKNTLYLQMNSLRAEDTAVYYCAEGQGAFDFWGQGTMVTVSS VL: NFMLTQPPSASGTPGQRVTISCSGSTSNIGGNTVNWYQQLPGTAPKLLIYSNIQRPSGVPDRFSGSKSGTSASLAIRGLRSEDEADYYCSTWDDSRKGVVFGGGTKLTVLG , result: -3
